# Binding response per entry
Molecular target: T1, human LAP-TGFB1 Fc fusion (human)
T1 construct: also called human LAP-TGFβ1-Fc; human LAP-TGFβ-Fc isoform 1
T1 sequence (chain, as listed by the source limits assumed): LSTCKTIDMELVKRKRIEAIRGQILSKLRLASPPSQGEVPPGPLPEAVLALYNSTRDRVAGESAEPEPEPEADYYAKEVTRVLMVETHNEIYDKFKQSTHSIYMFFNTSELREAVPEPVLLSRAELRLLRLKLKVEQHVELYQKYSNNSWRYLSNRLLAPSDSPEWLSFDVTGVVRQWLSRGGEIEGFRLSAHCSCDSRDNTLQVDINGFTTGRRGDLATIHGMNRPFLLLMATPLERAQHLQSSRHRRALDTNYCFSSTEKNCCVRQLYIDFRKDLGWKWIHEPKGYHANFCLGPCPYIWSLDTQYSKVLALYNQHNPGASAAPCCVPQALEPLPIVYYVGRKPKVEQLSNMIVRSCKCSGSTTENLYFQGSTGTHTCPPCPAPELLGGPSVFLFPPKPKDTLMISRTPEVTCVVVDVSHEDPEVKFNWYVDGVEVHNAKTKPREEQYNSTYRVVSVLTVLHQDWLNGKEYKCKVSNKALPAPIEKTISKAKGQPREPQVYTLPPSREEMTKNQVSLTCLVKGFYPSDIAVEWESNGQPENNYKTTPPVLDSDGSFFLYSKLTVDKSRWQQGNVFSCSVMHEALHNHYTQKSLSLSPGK
Test: BLI off-rate screen
propertyName: Binding response

binder	result
VH W95Y (88BIT) (Fab, V domains shown) VH: EVQLVQSGAEVKKPGASVKVSCKASGYTFTSYWMHWVRQAPGQGLEWMGRIDPQSGGIKYAQKFQGRATLTVDTSTSTAYMELSRLRSDDTAVYYCARYDYGGYFDVWGQGTLVTVSS VL: DIQMTQSPSSLSASVGDRVTITCRASQDITNYLNWYQQKPGKAVKLLIYYTSRLHSGVPSRFSGSGSGTDYTLTISSLQPEDFATYFCQQGDTLPWTFGQGTKLEIKR	0.638 nm
VL N31Y (45BIT) (Fab, V domains shown) VH: EVQLVQSGAEVKKPGASVKVSCKASGYTFTSYWMHWVRQAPGQGLEWMGRIDPQSGGIKYAQKFQGRATLTVDTSTSTAYMELSRLRSDDTAVYYCARWDYGGYFDVWGQGTLVTVSS VL: DIQMTQSPSSLSASVGDRVTITCRASQDITYYLNWYQQKPGKAVKLLIYYTSRLHSGVPSRFSGSGSGTDYTLTISSLQPEDFATYFCQQGDTLPWTFGQGTKLEIKR	0.344 nm
VH G56Y (82BIT) (Fab, V domains shown) VH: EVQLVQSGAEVKKPGASVKVSCKASGYTFTSYWMHWVRQAPGQGLEWMGRIDPQSGYIKYAQKFQGRATLTVDTSTSTAYMELSRLRSDDTAVYYCARWDYGGYFDVWGQGTLVTVSS VL: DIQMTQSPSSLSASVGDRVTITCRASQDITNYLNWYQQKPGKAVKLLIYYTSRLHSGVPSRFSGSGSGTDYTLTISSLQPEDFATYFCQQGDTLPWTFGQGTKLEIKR	0.569 nm
VH T30Y (69BIT) (Fab, V domains shown) VH: EVQLVQSGAEVKKPGASVKVSCKASGYTFYSYWMHWVRQAPGQGLEWMGRIDPQSGGIKYAQKFQGRATLTVDTSTSTAYMELSRLRSDDTAVYYCARWDYGGYFDVWGQGTLVTVSS VL: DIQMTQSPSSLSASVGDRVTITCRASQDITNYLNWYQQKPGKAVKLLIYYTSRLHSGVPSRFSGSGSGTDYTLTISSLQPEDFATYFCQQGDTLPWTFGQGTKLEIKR	0.372 nm
VL D28Y (42BIT) (Fab, V domains shown) VH: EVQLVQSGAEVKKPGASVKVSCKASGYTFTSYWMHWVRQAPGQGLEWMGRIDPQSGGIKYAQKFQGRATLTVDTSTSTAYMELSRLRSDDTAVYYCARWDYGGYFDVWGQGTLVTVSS VL: DIQMTQSPSSLSASVGDRVTITCRASQYITNYLNWYQQKPGKAVKLLIYYTSRLHSGVPSRFSGSGSGTDYTLTISSLQPEDFATYFCQQGDTLPWTFGQGTKLEIKR	0.207 nm
